# TARGET_OF_ASSAY: Protein-arginine deiminase type-1 (Homo sapiens)
# PROTOCOL_SUMMARY: inhibitors of PAD1, PAD2, PAD3 and PAD4, late-stage follow-up, selectivity assay for PAD4 inhibitor project, biochemical, colorimetric, BAEE substrate, recombinant enzymes (AID 588560)
# CONDITION_SUMMARY: recombinant PAD1-4, BAEE citrulline colorimetric, 15 min; PAD1; at 10 µM; hits give high values
READOUT_KIND: inhibition (%)

Solved entries:
COC1=C(Br)C(=O)c2nc(-c3ccccn3)ccc2C1=O = 50
COc1ccc2nc(C#N)ccc2c1[N+](=O)[O-] = -24
COC1=C(Br)C(=O)c2ncccc2C1=O = 75
COC1=C(I)C(=O)c2nc(C#N)ccc2C1=O = 60
NC1=CC(=O)c2cccnc2C1=O = 70

(P) O=C(O)c1cccc(-c2ccc3ccc(Br)c(OCc4ccccc4)c3n2)n1
(Q) COC1=CC(=O)c2nc(C#N)ccc2C1=O
(R) COC(=O)c1nc(C(C)=O)c2[nH]c3ccccc3c2c1C
Query: Rank the items in ascending order with respect to inhibition. Reply with the item labels sorted in the order that was asked for.
Reply: P, R, Q
(P: -23%, R: 5%, Q: 68%)

----------
# TARGET_OF_ASSAY: Protein-arginine deiminase type-2 (Homo sapiens) (UniProt Q9Y2J8)
# Sequence (Q9Y2J8 whole entry, looked up): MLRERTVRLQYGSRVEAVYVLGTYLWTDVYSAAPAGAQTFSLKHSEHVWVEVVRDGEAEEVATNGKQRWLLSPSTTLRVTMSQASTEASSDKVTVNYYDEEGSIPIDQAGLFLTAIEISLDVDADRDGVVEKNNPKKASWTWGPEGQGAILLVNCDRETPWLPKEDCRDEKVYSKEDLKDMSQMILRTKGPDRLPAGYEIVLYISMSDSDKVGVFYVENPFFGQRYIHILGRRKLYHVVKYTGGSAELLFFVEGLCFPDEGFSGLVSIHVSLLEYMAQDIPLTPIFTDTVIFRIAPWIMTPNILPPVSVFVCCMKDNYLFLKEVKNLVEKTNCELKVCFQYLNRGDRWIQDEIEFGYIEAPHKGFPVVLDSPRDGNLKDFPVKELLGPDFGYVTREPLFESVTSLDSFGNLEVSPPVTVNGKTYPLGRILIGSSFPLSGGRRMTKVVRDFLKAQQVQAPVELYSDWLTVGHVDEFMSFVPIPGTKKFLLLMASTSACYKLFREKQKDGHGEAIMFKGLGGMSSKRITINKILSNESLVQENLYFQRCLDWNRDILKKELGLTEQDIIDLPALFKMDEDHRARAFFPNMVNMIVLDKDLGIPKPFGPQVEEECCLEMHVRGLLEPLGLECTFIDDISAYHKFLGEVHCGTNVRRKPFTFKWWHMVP
# PROTOCOL_SUMMARY: inhibitors of PAD1, PAD2, PAD3 and PAD4, late-stage follow-up, selectivity assay for PAD4 inhibitor project, biochemical, colorimetric, BAEE substrate, recombinant enzymes (AID 588560)
# CONDITION_SUMMARY: recombinant PAD1-4, BAEE citrulline colorimetric, 15 min; PAD2; at 10 µM; hits give high values
READOUT_KIND: inhibition (%)

O=C1C(Br)=CC(=O)c2ncccc21 = 12

(a) CCOC(=O)c1nc(C(=O)OCC)c(C(=O)OCC)c(-c2ccc(OC)c(OC)c2OCc2ccccc2)c1C
(b) COC(=O)c1nc(C(=O)OC)c(NC(C)=O)c(-c2ccccc2Br)c1C
(c) COC1=CC(=O)c2nc(C#N)ccc2C1=O
(d) O=C1C=C(Br)C(=O)c2ncccc21
Query: Rank the items in ascending order with respect to inhibition. Reply with the item labels sorted in the order that was asked for.
Reply: a, b, d, c
(a: -31%, b: -19%, d: 14%, c: 88%)

(I) COC1=C(Br)C(=O)c2nc(-c3ccccn3)ccc2C1=O
(II) COC(=O)c1cccc(-c2ccc3ccc(Br)c(O)c3n2)n1
(III) COc1ccc2nc(C#N)ccc2c1[N+](=O)[O-]
Query: Please rank these molecules by inhibition in descending order. Reply with the item labels sorted in the order that was asked for.
Reply: I, III, II
(I: 62%, III: 2%, II: -22%)

----------
# TARGET_OF_ASSAY: Protein-arginine deiminase type-1 (Homo sapiens)
# PROTOCOL_SUMMARY: inhibitors of PAD1, PAD2, PAD3 and PAD4, late-stage follow-up, selectivity assay for PAD4 inhibitor project, biochemical, colorimetric, BAEE substrate, recombinant enzymes (AID 588560)
# CONDITION_SUMMARY: recombinant PAD1-4, BAEE citrulline colorimetric, 15 min; PAD1; at 10 µM; hits give high values
READOUT_KIND: inhibition (%)

COc1ccc2nc(C#N)ccc2c1 = -37

(a) NC1=CC(=O)c2ccc(-c3ccccn3)nc2C1=O
(b) COC(=O)c1nc(C(=O)OC)c(NC(C)=O)c(-c2ccccc2Br)c1C
Query: Given a and given b , which shows the smaller recorded inhibition? Selection: enter the item's label.
Reply: b

----------
# TARGET_OF_ASSAY: Protein-arginine deiminase type-3 (Homo sapiens)
# PROTOCOL_SUMMARY: inhibitors of PAD1, PAD2, PAD3 and PAD4, late-stage follow-up, selectivity assay for PAD4 inhibitor project, biochemical, colorimetric, BAEE substrate, recombinant enzymes (AID 588560)
# CONDITION_SUMMARY: recombinant PAD1-4, BAEE citrulline colorimetric, 15 min; PAD3; at 10 µM; hits give high values
READOUT_KIND: inhibition (%)

NC1=CC(=O)c2cccnc2C1=O = 100
COC1=C(N)C(=O)c2ncccc2C1=O = 100
COC(=O)c1nc(-c2ccc3c(n2)C(=O)C(Br)=CC3=O)c2[nH]c3ccccc3c2c1C = -16
COC(=O)c1cccc(-c2ccc3c(n2)C(=O)C(Br)=CC3=O)n1 = -43
COC(=O)c1nnc(C(=O)OC)c(-c2ccc3cc(OC)ccc3n2)n1 = 15

(a) COC1=C(Br)C(=O)c2nc(-c3ccccn3)ccc2C1=O
(b) NC1=C(N)C(=O)c2ccccc2C1=O
Query: Given a and given b , which shows the smaller recorded inhibition? Selection: enter the item's label.
Reply: b
